In this section, each of the compounds is paired with its reported pest or weed control at 200 ppm.
# Tested on: Phytophthora infestans
# Assay Method Text: whole plant or invertebrate
# Format: in vivo
# Experimental Setup: in Solanum lycopersicum, 96 h, read-out: % Control
Observable: pest or weed control at 200 ppm (%)

[[record]]
structure = "COC(=O)N(CC#CI)N=Cc1ccc(F)cc1"
endpoint_unit = "%"
numeric_result = 0

[[record]]
structure = "COC(=O)N(CC#CI)N=Cc1ccccc1"
endpoint_unit = "%"
numeric_result = 80

[[record]]
structure = "COC(=O)N(CC#CBr)N=Cc1cc(Cl)cc(Cl)c1"
endpoint_unit = "%"
numeric_result = 0

[[record]]
structure = "COC(=O)N(CC#CBr)N=Cc1ccc(F)cc1"
endpoint_unit = "%"
numeric_result = 0

[[record]]
structure = "COC(=O)N(CC#CI)N=Cc1ccc(Cl)cc1"
endpoint_unit = "%"
numeric_result = 90

[[record]]
structure = "COC(=O)N(CC#CI)N=Cc1ccc(C#N)cc1"
endpoint_unit = "%"
numeric_result = 0

[[record]]
structure = "CCOC(=O)N(CC#CBr)N=Cc1ccc(Cl)c(Cl)c1"
endpoint_unit = "%"
numeric_result = 0

[[record]]
structure = "COC(=O)N(CC#CI)N=Cc1ccc(C)cc1"
endpoint_unit = "%"
numeric_result = 80

[[record]]
structure = "COC(=O)N(CC#CI)N=Cc1ccc([N+](=O)[O-])o1"
endpoint_unit = "%"
numeric_result = 0

[[record]]
structure = "COC(=O)N(CC#CI)N=Cc1cc(Cl)cc(Cl)c1"
endpoint_unit = "%"
numeric_result = 0

[[record]]
structure = "CCOC(=O)N(CC#CI)N=Cc1ccc(Cl)c(Cl)c1"
endpoint_unit = "%"
numeric_result = 0

[[record]]
structure = "COC(=O)N(CC#CI)N=Cc1ccc(Cl)c(Cl)c1"
endpoint_unit = "%"
numeric_result = 80

